TGI for assorted compounds
system: COLO 205 colon; test: NCI tumour cell line growth inhibition, 48 h
Where a SMILES comes first, the peptide text is derived from it. The star is where a group is joined. OSu = O=C1CCC(=O)N1O*

Use these answered entries as a reference point.
Cc1cn2c(/C=N/N=C(N)N)c(-c3ccncc3)nc2s1 = 33.3 µM
COC(=O)CC(C(C(C)=O)C(=O)OCc1ccccc1)N1C(=O)OC(c2ccccc2)C1c1ccccc1 (stereo not drawn) = > 100 µM
CC1(C)C(=O)C(=Cc2ccco2)C1=O = > 100 µM
NCCCCC(NC(=O)C(N)Cc1ccc(O)cc1)C(=O)NC(Cc1ccc(O)cc1)C(=O)NC(CCCCN)C(=O)ON1C(=O)CCC1=O (stereo not drawn) (H-YKYK-OSu; configuration not given here) = > 100 µM
O=c1c2c3c(sc2nc2n1N=CN(c1ccc(F)cc1)C2)CCCC3 = > 100 µM

Req: Reported TGI, compound CC(CC[C@@]1(O)OC2C[C@H]3[C@@H]4CC[C@H]5CC(OC6OC(CO)C(OC7OC(CO)C(O)C(OC8OCC(O)C(O)C8O)C7OC7OC(CO)C(O)C(O)C7O)C(O)C6O)[C@H](O)CC5(C)[C@H]4CCC3(C)C2[C@@H]1C)COC1OC(CO)C(O)C(O)C1O (stereo partly drawn) : ____
Resp: 31 µM

Req: Same question, `CCOc1ccc(N=Cc2ccnc3ccccc23)cc1` this time
Resp: > 100 µM

Req: Okay, and `C=CCn1c(=N)/c(=C(\N)O)s/c1=C1/SC(=S)N(c2ccc(C)cc2)C1=O` ?
Resp: > 100 µM

###

test system: TK-10 renal; assay: NCI tumour cell line growth inhibition, 48 h; in the data active = GI50 below about 0.43 µM; inactive = the rest
Thanks in advance; please answer with one of these: active, inactive

O=C(/C=C\n1cnc(-c2cc(C(F)(F)F)cc(C(F)(F)F)c2)n1)N1CC(F)(F)C1 = inactive

Req: Short answer needed: outcome of this test for `Oc1c(O)c(Cl)c(Cl)c(Cl)c1Cl` ?
Resp: inactive

###

test system: SK-MEL-28 melanoma; test: NCI tumour cell line growth inhibition, 48 h; in the data active = GI50 below about 0.43 µM; inactive = the rest
Respond with a class label; see 1 = active, 0 = inactive

Observe how each entry below is paired with its result.
CCN(CC)c1ccc2nc3ccc(N=Nc4ccc(O)cc4)cc3[n+](-c3ccccc3)c2c1 = 0
COc1ccc(-c2n[nH]nc2-c2cc(OC)c3c(c2)OCO3)cc1 = 1

Now, please, on to the next compound.
Req: Which outcome did this test record for the compound `NCCOc1ncccc1/C=C1\c2ccccc2-c2ccc([N+](=O)[O-])cc21` ?
Resp: 1

###

test system: NCI-H460 lung; experiment: NCI tumour cell line growth inhibition, 48 h
Below, each entry is listed with its recorded TGI.

Req: Looking for the measured TGI of `Nc1ccc(-c2ccc3ncc4ccc(=O)n(-c5cccc(C(F)(F)F)c5)c4c3c2)cn1` , can you help?
Resp: 3.18 µM

Req: Also need CCOC1CCN(C(=O)c2ccccc2)O1 (stereo not given) , thanks.
Resp: > 10 µM

Req: Try O=C(Oc1ccccc1)C(Br)C(Br)c1ccccc1 (stereo not given) next.
Resp: 29.8 µM

Req: Query `CNC(=S)/C(C#N)=C(\N)N1CCCC1` next
Resp: > 100 µM

Req: Next up: `CCN(CC)c1ccc(/C=N/NC(=O)CSc2nc3ccccc3c(=O)n2Cc2ccc(S(N)(=O)=O)cc2)c(O)c1`
Resp: > 100 µM

Req: How about this compound: CC12CCC(CC1(Cl)Cl)C2 (stereo not given)
Resp: > 100 µM

Req: What about this compound? `COc1cc(Nc2ncnc(Nc3ccc4c(n3)NC(=O)C(C)(C)O4)n2)cc(OC)c1OC`
Resp: > 100 µM

###

tested on: NCI-H23 lung; assay: NCI tumour cell line growth inhibition, 48 h; in the data active = GI50 below about 0.43 µM; inactive = the rest
Classes to choose from: active, inactive

Before answering, review these 5 worked examples.
COc1cccc(NC(=O)c2sc3nc4c(cc3c2N)C(O)CCC4)c1 (stereo unspecified) = inactive
CCc1nn2ncccc2c1-c1ccnc(NC2CC2)n1 = inactive
COc1ccc2[nH]c(C(=O)OCc3ccc4cccc(O)c4n3)cc2c1 = inactive
CCc1nc2cc(/C=C/C(=O)NO)ccc2c(=O)n1CCc1ccc(OC)cc1 = inactive
CN(C)CCCCCNc1c2ccccc2nc2cccc([N+](=O)[O-])c12 = active

Req: Write down the call the test reported for this molecule. Item: `CC1=C(C#N)C(/C=C(\Cl)c2ccc(F)cc2)C(C#N)=C(C)N1`
Resp: inactive

Req: Can you handle `COc1ccc(-c2n[nH]nc2-c2cc(OC)c3c(c2)OCO3)cc1` next?
Resp: active

Req: What about this molecule? `COc1cc(-c2cc3ncccc3c3[nH]c(=O)c4cccnc4c23)cc(OC)c1OC`
Resp: inactive

Req: What about this molecule? `COc1ccc(-c2nn3ncccc3c2-c2ccnc(Nc3ccc4c(c3)OCCO4)n2)cc1`
Resp: inactive

Req: And for `CCN(CC)c1ccc2nc3ccc(N=Nc4ccc(O)cc4)cc3[n+](-c3ccccc3)c2c1` ?
Resp: inactive

Req: Query `Cc1ccc(O)c(NC2=C(Cl)C(=O)N(Cc3ccccc3)C2=O)c1` next
Resp: inactive

Req: Now consider `Cn1cncc1-c1c(F)cncc1NC(=O)c1c(N)nn2cc(F)cnc12` and answer again.
Resp: active

Req: Now give it for `C[C@H](NC(=O)c1c(C(F)F)nn(C)c1Oc1cccc(C(F)(F)F)c1)c1ccc(C(=O)O)cc1` too.
Resp: inactive

Req: Now the same for `Nc1nc2c(ccc3ccccc32)s1`
Resp: inactive

###

system: CAKI-1 renal; experiment: NCI tumour cell line growth inhibition, 48 h; in the data active = GI50 below about 0.43 µM; inactive = the rest
// one of 1 (yes) = active, 0 (no) = inactive, no free text

Observe how each entry below is paired with its result.
COc1ccccc1C1C(C#N)=C(N)Oc2cc(O)ccc21 (stereo unspecified) = 0 (no)
COc1ccc(-c2nc(N)c(C#N)c3c2CCOc2c-3ccc3ccccc23)cc1 = 0 (no)
Cc1ccc(O)c(NC2=C(Cl)C(=O)N(Cc3ccccc3)C2=O)c1 = 0 (no)
CCN(CC)c1ccc(/C=N/NC(=O)CSc2nc3ccccc3c(=O)n2Cc2ccc(S(N)(=O)=O)cc2)c(O)c1 = 0 (no)
Nc1ccc(-c2ccc3ncc4ccc(=O)n(-c5cccc(C(F)(F)F)c5)c4c3c2)cn1 = 1 (yes)
Cc1noc(C)c1-c1cnc2c(-c3ccc(C(=O)O)cc3)cn([C@@H](C)c3ccccn3)c2c1 = 1 (yes)
CCc1nc2cc(/C=C/C(=O)NO)ccc2c(=O)n1CCc1ccc(OC)cc1 = 0 (no)
CC/C(Cc1ccccc1)=C(/c1ccc(O)cc1)c1ccc(OCCN2CCCC2)cc1 = 0 (no)
COc1ccc2nc3cccc([N+](=O)[O-])c3c(NCCNCCN(C)C)c2c1 = 1 (yes)
COc1ccc2[nH]c(C(=O)OCc3ccc4cccc(O)c4n3)cc2c1 = 0 (no)

Req: Look up the recorded call for `Nc1nc2c(ccc3ccccc32)s1` in this test.
Resp: 0 (no)

Req: Param item: COc1ccc(-c2nsc3c2NC(=O)CC3c2cccc(Cl)c2)cc1 (stereo unspecified)
Resp: 0 (no)

Req: // next record `c1cc[c]([Sn]([O]c2cccc3cccnc23)([O]c2cccc3cccnc23)[c]2ccccc2)cc1`
Resp: 1 (yes)

Req: Next record, please: O=C1Nc2ccccc2/C1=C/c1cn(CC(O)Cn2cc(/C=C3\C(=O)Nc4ccccc43)c3ccccc32)c2ccccc12 (stereo unspecified)
Resp: 0 (no)

Req: Follow-up item: `CCN(CC)c1ccc2nc3ccc(N=Nc4ccc(O)cc4)cc3[n+](-c3ccccc3)c2c1`
Resp: 0 (no)

###

test system: T-47D breast; assay: NCI tumour cell line growth inhibition, 48 h
measured.endpoint: TGI (µM)
Your answer should be a plain number; it is taken to be in µM.

Req: If you can, please state the reported TGI value of `C=CCn1c(-c2ccc(Cl)cc2)csc1=Nc1ccccc1OC` .
Resp: 8.5

###

system: TK-10 renal; test: NCI tumour cell line growth inhibition, 48 h
The entries below come with measured TGI values attached.

OC(COc1ccccc1)CN1CCCCC1 (stereo not given) = > 100 µM
CCCCCCCCCCOC(=O)c1cc[n+](C)cc1 = 31.8 µM
CCOC(=O)C1=C(C(=O)OCC)C2(c3ccccc3)N(O1)c1ccccc1C2(C)C (stereo not given) = > 100 µM
C=C(C)C(=O)OC1C[C@H](COC(C)=O)C2CC=C(CO)C2C2OC(=O)C(=C)[C@H]12 (stereo not given in full) = > 100 µM

Req: Item under review: `Clc1ccc(OCc2nnc3n2N=C(c2ccccc2)CS3)c(Cl)c1` . Reported TGI?
Resp: > 100 µM

Req: Next record, please: `COc1cccc2cc(C(=O)NC34CC5CC(CC(C5)C3)C4)c(=N)oc12`
Resp: > 100 µM

Req: What about this compound? `[N-]=[N+]=Nc1ccc2c(c1)Sc1ccccc1N2CCCCN1CCN(C(=O)CCNC(=O)Cc2ccc(C(=O)c3ccccc3)cc2)CC1`
Resp: > 75.6 µM

Req: Now the same for `COc1cc(-c2cc3ncccc3c3[nH]c(=O)c4cccnc4c23)cc(OC)c1OC`
Resp: > 100 µM

Req: Quick one: C=C(CO)CC(/C=C(\C)CC/C=C(\C)CCl)OC(C)=O (stereo not given)
Resp: > 100 µM

Req: Lookup `CCN(CC)c1ccc(/C=N/NC(=O)CSc2nc3ccccc3c(=O)n2Cc2ccc(S(N)(=O)=O)cc2)c(O)c1`
Resp: > 100 µM
